The values you see were collected from paper PMC11345841.

TARGET_OR_TEST_SYSTEM: FRK (Homo sapiens)
Construct: purchased Eurofins DiscoverX KINOMEscan (scanTK)
Sequence (P42685 whole entry): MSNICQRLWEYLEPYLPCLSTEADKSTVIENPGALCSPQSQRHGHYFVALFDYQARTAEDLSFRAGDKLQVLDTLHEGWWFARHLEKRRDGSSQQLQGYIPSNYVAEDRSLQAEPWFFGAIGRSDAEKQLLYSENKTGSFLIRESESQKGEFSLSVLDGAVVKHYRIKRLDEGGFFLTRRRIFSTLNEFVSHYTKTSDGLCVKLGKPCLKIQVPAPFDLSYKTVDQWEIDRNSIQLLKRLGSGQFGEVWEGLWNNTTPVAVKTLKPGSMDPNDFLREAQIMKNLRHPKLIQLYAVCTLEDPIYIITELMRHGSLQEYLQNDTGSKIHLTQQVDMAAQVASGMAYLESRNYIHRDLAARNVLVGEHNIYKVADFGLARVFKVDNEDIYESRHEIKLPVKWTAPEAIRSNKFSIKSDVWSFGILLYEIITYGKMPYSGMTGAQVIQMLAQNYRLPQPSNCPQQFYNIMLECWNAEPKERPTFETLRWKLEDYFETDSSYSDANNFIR
PROTOCOL_DESCRIPTION: KINOMEscan ScanTK
Format: binding
CONDITION_INFO: read-out: %Control @1000nM
OBSERVED_PROPERTY: remaining binding at 1 µM (%)
Numeric answer only, unit % assumed.

### Prompt I have this compound here, CNC(=O)c1cnc(S(C)(=O)=O)nc1N1CCCC(n2nc(-c3ccc(Oc4ccccc4)cc3)c3c(N)ncnc32)C1 (centres unmarked) , and I need its recorded remaining binding at 1 µM.
### Response 43

### Prompt Please look up its remaining binding at 1 µM: C=CC(=O)N1CCC[C@@H](n2nc(-c3ccc(Oc4ccccc4)cc3)c3c(N)ncnc32)C1 [Compound 1g, Ibrutinib, reference compound]
### Response 9.3

### Prompt What value of remaining binding at 1 µM has been recorded for this entry: CCOC(=O)c1cnc(S(C)(=O)=O)nc1N1CCC[C@@H](n2nc(-c3ccc(Oc4ccccc4)cc3)c3c(N)ncnc32)C1
### Response 76

### Prompt Look up remaining binding at 1 µM for this compound: COC(=O)c1cnc(S(C)(=O)=O)nc1N1CCCC(n2nc(-c3ccc(Oc4ccccc4)cc3)c3c(N)ncnc32)C1 (centres unmarked)
### Response 79

### Prompt # get_value(readout='remaining binding at 1 µM', item= Cc1cnc(S(C)(=O)=O)nc1N1CCCC(n2nc(-c3ccc(Oc4ccccc4)cc3)c3c(N)ncnc32)C1 (centres unmarked) )
### Response 48
